Please provide measured RP-LC retention time for the entries that follow.
assay: gradient 5% acetonitrile 3 min, to 50% in 2 min, to 85% in 15 min, held 3 min, 100 µL/min; conditions: column: Zorbax Extend-C18 2.1 x 50 mm; eluents: water / acetonitrile, 0.1% formic acid
Value and unit, in that order.

If you can, please state the reported RP-LC retention time value of `O=C(C1=CCN(Cc2ccc(F)cc2)CC1)N1CCN(c2ccccc2Cl)CC1` .
723 s

Which value of RP-LC retention time has been reported for `Cc1cccc(C)c1NC(=O)N1CCC(OC2CCN(Cc3ccccc3)CC2)CC1` in the records?
661 s

Quick one: RP-LC retention time of `O=C(Nc1ccc(-c2ccc(=O)[nH]n2)cc1)c1ccc(-n2cccn2)nn1` ?
643 s

# lookup: RP-LC retention time of `COc1ccccc1N1CCN(c2ccc3cc(S(=O)(=O)N4CCCC4)ccc3n2)CC1`
855 s

###

test: gradient 5% acetonitrile 3 min, to 50% in 2 min, to 85% in 15 min, held 3 min, 100 µL/min; conditions: column: Zorbax Extend-C18 2.1 x 50 mm; eluents: water / acetonitrile, 0.1% formic acid
I'd appreciate it if you could supply RP-LC retention time values for the items below.
The reply should be a number in s, with the unit left off.

So what's the measured RP-LC retention time for this one? `Cc1ccc(C)c(N2CCN(C(=O)c3cn4c(n3)CCCC4)CC2)c1`
689

Fill in the blank: the reported RP-LC retention time of Cc1[nH]c(C(=O)N2CCCC(C(=O)NCC3CCCO3)C2)c(C)c1C(=O)OC(C)C (stereo not drawn) is ____.
701

So what's the measured RP-LC retention time for this one? `Cc1cccc(S(=O)(=O)Nc2ccc3c(c2)CCC(=O)N3CC(C)C)c1`
896

###

Give RP-LC retention time for every item shown.
test: gradient 5% acetonitrile 3 min, to 50% in 2 min, to 85% in 15 min, held 3 min, 100 µL/min; details: column: Zorbax Extend-C18 2.1 x 50 mm; eluents: water / acetonitrile, 0.1% formic acid
# unit: s | format: bare number

Bench note: what RP-LC retention time did O=C(c1ccc2cc[nH]c2c1)N1CCN(C(=O)c2nnn3c2COC(c2ccc(Cl)cc2)C3)CC1 (stereo unspecified) show?
918

RP-LC retention time lookup needed for `CCOc1ccc(N(C)S(=O)(=O)c2ccsc2C(=O)NC2CCCC2)cc1` , thanks.
1030

Reported RP-LC retention time for `O=C1CCc2cc(NS(=O)(=O)/C=C/c3ccccc3)ccc2N1` : what is it?
681

Which measured RP-LC retention time value corresponds to `COc1cccc(Cn2nc3ccc(S(=O)(=O)N4CCCCCC4)cn3c2=O)c1` ?
946

What measured RP-LC retention time goes with CCOc1ccc(S(=O)(=O)N(C)C2CCc3nn(CC4CC4)c(=O)n3CC2)cc1 (stereo unspecified) ?
804

Which RP-LC retention time is reported for this compound? Cc1cc(C)c(NC(=O)C2CCN(S(C)(=O)=O)c3ccccc3O2)c(C)c1 (stereo unspecified)
900

Look at this compound and give its reported RP-LC retention time. CCCCNC(=O)C1CC(=O)N(c2n[nH]c3cccc(F)c23)C1 (stereo unspecified)
660

# lookup: RP-LC retention time of Cc1ccccc1OCC1c2ccsc2CCN1C(=O)CN(CC1CCCO1)C(=O)NC(C)(C)C (stereo unspecified)
1140

I'd like to know its RP-LC retention time. The compound in question is `COc1ccc(OC)c(-c2cn3ccn(-c4cccc(Cl)c4C)c(=O)c3n2)c1`
924

Tell me the measured RP-LC retention time of `Cc1cc(C(=O)Nc2ccc3c(c2)OCO3)c2c(C)nn(-c3cccc(F)c3)c2n1` , please.
1170

Which RP-LC retention time value is on record for COC(=O)c1[nH]c2c(c1C)C(=O)CC(c1ccccc1)C2 (stereo unspecified) ?
860

# input compound: `COc1ccc2nc(C(=O)NCc3ccc(C)cc3)cn2n1` ; wanted: its RP-LC retention time
843

Find the recorded RP-LC retention time belonging to CCOC(=O)c1[nH]c(C)c(CCC(=O)N2CCCC(C(=O)N3CCCCCC3)C2)c1C (stereo unspecified) and report it.
800

Which RP-LC retention time is listed for `Cc1nc(-c2cn(C(C)C)c3ncccc23)sc1C(=O)NCCC(C)C` ?
1070

// lookup RP-LC retention time for `Cc1cc(=O)n(CC(=O)Nc2ccccc2C)c(N2CCOCC2)n1`
657

Could you share which RP-LC retention time value was measured for `Cc1ccc(NC(=O)N2CCC(n3cnc4cc(F)ccc4c3=O)CC2)c(C)c1` ?
811

# get_value(readout='RP-LC retention time', item= `CC(=O)Oc1ccc(C(=O)NCCc2c[nH]c3ccc(Cl)cc23)cc1` )
853

Can you share its RP-LC retention time? I mean this compound: `COc1ccc(N2CCN(CCNC(=O)CCSc3ccccc3)CC2)cc1`
606

// query RP-LC retention time value for entry `Cc1ccc(C)c(S(=O)(=O)N2CCc3nc(-c4ccccc4)ncc3C2)c1`
1170

Requested read-out: RP-LC retention time. Entry: `COc1ccc2[nH]c(=O)c(CCC(=O)NCc3cccnc3)cc2c1`
571

Report RP-LC retention time for `Cc1ccn2cc(-c3ccc(NC(=O)c4cccc([N+](=O)[O-])c4)cc3)nc2n1` please.
652

###

assay: gradient 5% acetonitrile 3 min, to 50% in 2 min, to 85% in 15 min, held 3 min, 100 µL/min; details: column: Zorbax Extend-C18 2.1 x 50 mm; eluents: water / acetonitrile, 0.1% formic acid
observation type: RP-LC retention time

Data request, read-out RP-LC retention time, for `O=C(NC1CCN(C(=O)c2cc(-c3cccs3)[nH]n2)CC1)c1ccc(Cl)cc1`
778 s

Quick one: RP-LC retention time for `O=C(Nc1nccnc1C(=O)NCCCN1CCCC1)c1ccccc1` ?
609 s

Could you share which RP-LC retention time value was measured for `CCS(=O)(=O)N1CCOc2ccc(CCC(=O)NC3CC3)cc2C1` ?
675 s

Fill in the blank: the reported RP-LC retention time of `Cc1cc(NC(=O)COc2cccc3c(=O)n(C)ccc23)no1` is ____.
660 s

Which value of RP-LC retention time has been reported for `Cc1nc(-c2cnccn2)n(CC(=O)Nc2ccc3c(c2)OCCO3)c(=O)c1C` in the records?
688 s

Recorded RP-LC retention time of `COc1ccc(NC(=O)Cn2c(N3CCCC3)nc(C)cc2=O)cc1OC` , please.
601 s

So what's the measured RP-LC retention time for this one? Cc1noc(C2CN(C(=O)CCC(C)C)CC23CCOCC3)n1 (configuration not stated)
678 s

###

test: gradient 5% acetonitrile 3 min, to 50% in 2 min, to 85% in 15 min, held 3 min, 100 µL/min; details: column: Zorbax Extend-C18 2.1 x 50 mm; eluents: water / acetonitrile, 0.1% formic acid
observation type: RP-LC retention time (s)
Enter your answer as a number in s; do not include the unit.

Entry under review: `CNS(=O)(=O)c1cccc(-c2nnc(-c3ccc(C)cc3)o2)c1` . Reported RP-LC retention time?
856

Dear colleague, I am looking for the recorded RP-LC retention time of the following compound: `O=C(CSc1nc2ccccc2[nH]1)Nc1nccs1`
613

Reported RP-LC retention time for `CCc1c(C(=O)O)nnn1-c1ccc(C)cc1F` : what is it?
737

For Cc1noc(C2CN(C(=O)NCc3ccc(F)cc3)CC23CCOCC3)n1 (stereo not given) , what is its reported RP-LC retention time?
698

// returns reported RP-LC retention time for input COC(=O)c1ccc2c(c1)N(Cc1cccc(F)c1)C(=O)CS2=O (stereo not given)
744

Consider the compound O=C(Nc1nc(-c2ccco2)cs1)C1COCC(=O)N1Cc1ccccc1 (stereo not given) and give its measured RP-LC retention time.
729

Name the recorded RP-LC retention time for `CC(C)CN1CCN(C(=O)c2cn3cc(Cl)ccc3n2)CC1` .
577

Which value of RP-LC retention time has been reported for `COc1ccc(Cn2c(=O)c3sccc3n(Cc3nc(-c4ccccc4Cl)no3)c2=O)cc1` in the records?
1090

Entry under review: `O=C(CCn1cnc2cc(-c3noc(COc4ccc(Cl)cc4)n3)ccc21)N1CCCC1` . Reported RP-LC retention time?
786

// RP-LC retention time lookup, key: `O=C(C1CCN(c2cnc3nccnc3c2)CC1)N1CCN(c2ccc(Cl)cc2)CC1`
810

###

test: gradient 5% acetonitrile 3 min, to 50% in 2 min, to 85% in 15 min, held 3 min, 100 µL/min; conditions: column: Zorbax Extend-C18 2.1 x 50 mm; eluents: water / acetonitrile, 0.1% formic acid
What RP-LC retention time was measured for each of the following?
The reply should be a number in s, with the unit left off.

Given the compound `COc1ccc(OC)c(NC(=O)CSc2cc(N3CCN(c4ccccc4OC)CC3)ncn2)c1` , what is its reported RP-LC retention time?
791

I am curious: what RP-LC retention time value has been reported for `CNC(=O)c1cccc(NC(=O)N2CCC(Oc3ccccc3Cl)CC2)c1` ?
899

Look up RP-LC retention time for this compound: COc1ccc(Nc2nccc(C3CCCN(C(=O)C(C)(C)C)C3)n2)cc1 (stereo not given)
892

Endpoint output: RP-LC retention time of `COc1ccc(Cl)cc1NC(=O)N1CCC2(CC1)N=C(c1cccc(F)c1)C(=O)N2` . Value?
882

Look up RP-LC retention time for this compound: `CCN(CC)C(=O)c1ccc2c(c1)nnn2CCNC(=O)Nc1ccc(Br)cc1`
779
